Below, each entry is listed alongside its reported growth inhibition.
assay: antimalarial activity against Dd2 strain (AID 2302);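 further: 0% = DMSO untreated growth and 100% = chloroquine plus artemisinin killed control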; conditions: P. falciparum Dd2 in RBCs, LDH growth readout, 72 h; at 2 µM; hits give high values

{"compound": "CC(=O)c1cccc(S(=O)(=O)NCCCNc2nc3cc(C)cc(C)c3cc2C#N)c1", "unitsLabel": "%", "growth inhibition": 75}
{"compound": "CCCCOc1ccc(C(O)C(CN2CCCCC2)c2ccccc2)cc1 (stereo unspecified)", "unitsLabel": "%", "growth inhibition": 84}
{"compound": "Cc1c(C)n(C2CCCCC2)c2ncnc(OC3CCN(CC(=O)N4CCCC4)CC3)c12", "unitsLabel": "%", "growth inhibition": 59}
{"compound": "CN1CCN(CCNc2c3ccccc3nc3ccc4ccccc4c23)CC1", "unitsLabel": "%", "growth inhibition": 99}
{"compound": "CC(C)Nc1ccc(Nc2ccnc3cc4ccccc4cc23)cc1", "unitsLabel": "%", "growth inhibition": 81}
{"compound": "COc1ccc(CNCc2ccc(-c3ccc(-c4nc5ccc(C(F)(F)F)cc5[nH]4)cc3)cc2)cc1", "unitsLabel": "%", "growth inhibition": 99}
{"compound": "O=C(C=NO)Nc1ccccc1[N+](=O)[O-]", "unitsLabel": "%", "growth inhibition": -2}
{"compound": "O=C(N[C@@H](CC1CCCCC1)C(=O)NCCN1CCCC1)c1ccc(O)c(-c2ccc(Cl)c(Cl)c2)c1", "unitsLabel": "%", "growth inhibition": 99}
{"compound": "O=C(COc1ccccc1)Nn1cnc2ccccc21", "unitsLabel": "%", "growth inhibition": -3}
{"compound": "Cc1cccc(CC(N)=NCCCCCCN=C(N)Cc2cccc(C)c2)c1", "unitsLabel": "%", "growth inhibition": 97}
{"compound": "Cc1cc(-c2cccc(CNC3CCN(C)CC3)c2)ccc1S(=O)(=O)NC1CCC1", "unitsLabel": "%", "growth inhibition": 96}

Just for reference, PubChem BioAssay is where these values come from.
